Biological target: T1, Recombinant WNV-E protein ectodomain (West Nile virus, UniProt Q9Q6P4 291-700)
T1 construct: extracellular domain; also called rWNV-E; WNE
T1 sequence (looked up): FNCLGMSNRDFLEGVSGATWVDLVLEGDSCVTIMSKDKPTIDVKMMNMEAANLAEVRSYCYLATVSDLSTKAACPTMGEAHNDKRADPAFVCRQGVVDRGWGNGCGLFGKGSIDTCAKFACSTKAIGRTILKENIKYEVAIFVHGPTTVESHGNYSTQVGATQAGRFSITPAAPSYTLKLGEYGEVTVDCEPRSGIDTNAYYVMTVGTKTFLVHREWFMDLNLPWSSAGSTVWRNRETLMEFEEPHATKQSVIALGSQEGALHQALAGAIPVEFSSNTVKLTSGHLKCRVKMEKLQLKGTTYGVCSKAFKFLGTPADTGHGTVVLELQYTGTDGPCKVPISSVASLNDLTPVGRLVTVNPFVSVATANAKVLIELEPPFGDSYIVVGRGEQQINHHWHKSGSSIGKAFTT
Test: SPR (Biacore 3000); scFv on NTA chip via His tag, rWNV-E in solution
The entries below are paired with their reported Kd.
test.readout: Kd (nM)

{"binder": "scFv 15 (scFv, also called 15 scFv; antibody 15) scFv: MAQVQLVQSGAEVKKPGASVKVSCKASGYTFSGYSTHWLRQVPGQGLEWIGWDNPSSGDTTYAENFRGRVTLTRDTSITTDYLEVRGLRSDDTAVYYCARGGDDYSFDHWGQGTLVTVSSGGGGSGGGGSGGGGSQSALTQPASVSGSPGQSITISCTGTNSDVGIYNLVSWYQQHPGKAPKLMIYDVSNRPSGVSSRFSGSNSGNTATLTISGLQAEDEADYYCSAHAGDNTQFGGGTKLTVLSQPKAAPSAAAEQKLISEEDL", "numeric.value": 9.65}
{"binder": "scFv 69 (scFv, not shown: small tags and cut ends, also called 69 scFv; antibody 69) scFv: MAQVQLVQSGAEVKEPGSSVKVSCKASGGTFSNYPISWVRQAPGQGLEWMGGIIPITNSPGYAQKFQGRVTISADESTGTVYMELSSLRSEDTAIYYCAKDPNRYESGVLHYWHGLDVWGQGTTVTVSSGGGGSGGGGSGGGGSLPVLTQPPSASGTPGQTVTLSCSGSSSNIGSNTVNWYQQLPGTAPKLLIYSNNQRPSGVPDRFSASKSGTSASLAITGLQAEDEADYFCAAWDDSLVYVFGTGTKVTVLGQPKAAPSAAAEQKLISEEDL", "numeric.value": 59.2}
